# System Under Test: mouse ATB^0,+ (Mus musculus, UniProt Q9JMA9)
# Sequence (Q9JMA9 1-638): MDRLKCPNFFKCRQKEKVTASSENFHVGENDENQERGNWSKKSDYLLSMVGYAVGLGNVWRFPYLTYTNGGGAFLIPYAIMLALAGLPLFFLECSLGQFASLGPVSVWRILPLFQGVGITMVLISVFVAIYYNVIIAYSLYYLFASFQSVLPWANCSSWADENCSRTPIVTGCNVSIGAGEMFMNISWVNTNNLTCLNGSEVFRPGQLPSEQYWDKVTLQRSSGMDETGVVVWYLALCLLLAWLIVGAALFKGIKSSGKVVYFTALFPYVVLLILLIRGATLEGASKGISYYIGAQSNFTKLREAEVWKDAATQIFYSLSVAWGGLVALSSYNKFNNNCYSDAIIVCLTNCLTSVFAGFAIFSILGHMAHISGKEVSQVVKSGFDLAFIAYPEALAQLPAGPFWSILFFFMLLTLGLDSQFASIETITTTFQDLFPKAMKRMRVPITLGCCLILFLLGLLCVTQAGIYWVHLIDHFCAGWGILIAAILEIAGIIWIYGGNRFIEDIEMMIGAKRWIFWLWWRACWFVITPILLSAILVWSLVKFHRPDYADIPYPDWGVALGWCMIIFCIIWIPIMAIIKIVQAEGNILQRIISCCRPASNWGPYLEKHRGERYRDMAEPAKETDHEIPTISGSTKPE
# Test: Substrate-induced inward currents in X. laevis oocytes expressing mouse ATB^0,+ (two-microelectrode voltage clamp)
# Format: cell-based
# Applied Conditions: saturation kinetics; NaCl; voltage clamp
The following molecules are shown together with reported Michaelis constant (K0.5) of substrate-induced currents values.
Measurement Label: Michaelis constant (K0.5) of substrate-induced currents (µM)

Molecule: Cn1cc(C[C@H](N)C(=O)O)c2ccccc21 [1-methyl-L-tryptophan]
Quantity Unit: µM
Readout Number: 93
--
Molecule: N[C@H](Cc1c[nH]c2ccccc12)C(=O)O [D-tryptophan]
Quantity Unit: µM
Readout Number: 288
--
Molecule: Cn1cc(C[C@@H](N)C(=O)O)c2ccccc21 [1-methyl-D-tryptophan]
Quantity Unit: µM
Readout Number: 462
--
Molecule: N[C@@H](Cc1c[nH]c2ccccc12)C(=O)O [L-tryptophan]
Quantity Unit: µM
Readout Number: 26
